test: Rat Hepatocyte Stability (Test E); type: in vitro ADME; conditions: rat, hepatocytes, geometric mean if run multiple times
Classify as follows. Reported hepatocyte CLint greater than or equal to 20 µL/min/1e6 cells: t. Reported hepatocyte CLint below: f.

Record excerpt, results attached:
# compound, class
measured = [
    ("COc1cc(C#N)c(O[C@H]2CC[C@@](C)(C(=O)O)CC2)cc1C(=O)N[C@@H]1[C@H]2CC[C@H](C2)[C@@H]1C(=O)NCC1(OC)CCC1 [Example 80]", "t"),
    ("COc1cc(F)c(O[C@H]2CC[C@@](C)(C(=O)O)CC2)cc1C(=O)Nc1nn2cccnc2c1C(=O)NCC1(C)CCC1 [Example 217]", "f"),
    ("CCC(CC)[C@H](C)NC(=O)[C@H]1[C@@H]2CC[C@@H](C2)[C@H]1NC(=O)c1cc(O[C@H]2CC[C@@](C)(C(=O)O)CC2)c(F)cc1OC (single isomer, unassigned) [Example 144]", "t"),
    ("COc1cc(F)c(O[C@H]2CC[C@@](C)(C(=O)O)CC2)cc1C(=O)Nc1ccc(C)cc1C(=O)NCC1(C)CCC1 [Example 216]", "f"),
]

Query :: // inclusive: hepatocyte CLint at least 20 µL/min/1e6 cells? input: COc1cc(F)c(O[C@H]2CC[C@@H](C(=O)O)CC2)cc1C(=O)N[C@@H]1[C@H]2CC[C@H](C2)[C@@H]1C(=O)Nc1ccc(S(F)(F)(F)(F)F)cc1 [Example 183]
Result :: f
